Test: photoluminescence quantum yield (fraction); solvent given as SMILES
Settings: in CC(C)=O
Assignment: determine reported photoluminescence quantum yield for the given molecules.

What value of photoluminescence quantum yield has been recorded for this entry: "CNC1=C2C=CC=[N+]2[B-](F)(F)n2cccc21"
0.16

Quick one: "COc1cc(N(c2ccccc2)c2ccccc2)ccc1C=C(C#N)C#N"
0.013

Quick one: "Cc1cc(C)c(B(c2ccc(-c3nc4c5ccccc5c5ccccc5c4[nH]3)cc2)c2c(C)cc(C)cc2C)c(C)c1"
0.71

Quick one: "c1ccc(-c2ccc(-c3ccc(N(c4ccccc4)c4ccccc4)cc3)c3nsnc23)cc1"
0.01

* * *

Assay: photoluminescence quantum yield (fraction); solvent given as SMILES
Details: in CCCCCC
experimental.endpoint: photoluminescence quantum yield
I'd appreciate a reply containing only the number, no unit.

What value of photoluminescence quantum yield has been recorded for this entry: "CC(C)[Si](C#Cc1c2ccccc2c(C#C[Si](C(C)C)(C(C)C)C(C)C)c2nc3c(nc12)C1c2ccccc2C3c2ccccc21)(C(C)C)C(C)C"
0.7

Quick one: "N#Cc1ccc2c(c1)CCc1nc(-c3ccc([N+](=O)[O-])cc3)c3c(c1-2)CCc1cc(C#N)ccc1-3"
0.3

Quick one: "Cc1cc(C)c(C2=[N+]3C(=Cc4c(C)cc(C)n4[B-]3(F)F)c3ccccc32)[nH]1"
0.85

Quick one: "CC(C)(C)c1ccc2c(c1)sc1[n+]2[B-](F)(F)n2c(c3cccc4c(Br)ccc2c43)=N1"
0.68

Quick one: "CCCCCCC1(CCCCCC)c2cc(-c3nc(-c4ccc5c(c4)C(CCCCCC)(CCCCCC)c4cc(N6c7ccccc7Oc7ccccc76)ccc4-5)nc(-c4ccc5c(c4)C(CCCCCC)(CCCCCC)c4cc(N6c7ccccc7Oc7ccccc76)ccc4-5)n3)ccc2-c2ccc(N3c4ccccc4Oc4ccccc43)cc21"
0.52

Quick one: "c1ccc(-c2ccc(-c3ccc(N(c4ccccc4)c4ccccc4)cc3)c3nsnc23)cc1"
0.492

Quick one: "CC(C)[Si](C#Cc1c2nsnc2c(C#C[Si](C(C)C)(C(C)C)C(C)C)c2nc3c(ccc4ccccc43)nc12)(C(C)C)C(C)C"
0.42

Quick one: "COc1ccc(C2=CC(c3cc(OC)cc(OC)c3)=[O+][B-](F)(F)O2)cc1"
0.25

Quick one: "CCc1c(C)c2n(c1C)[B-](F)(F)[N+]1=C(NCc3ccc(OC)cc3)C=CC1=C2C"
0.73

Quick one: "C[Si](C)(C)c1ccc2ccc3c([Si](C)(C)C)ccc4ccc1c2c43"
0.42

Quick one: "CCc1c(C)[nH]c(C2=[N+]3C(=Cc4c(C)c(CC)c(C)n4[B-]3(F)F)c3ccccc32)c1C"
0.86

Quick one: "CCOC(=O)COc1ccc(/C=C/C2=C3c4ccccc4C(c4[nH]c(C)cc4C)=[N+]3[B-](F)(F)n3c(C)cc(C)c32)cc1"
0.013

Quick one: "O=C1c2ccccc2-c2ccc(N3CCOCC3)c3cccc1c23"
0.33

Quick one: "N#Cc1ccc(N)c2nonc12"
0.329

Quick one: "CCCCCCC(CCCCCC)N1C(=O)c2cccc3c(-c4cc(OC)c(OC)c(OC)c4)ccc(c23)C1=O"
0.41

Quick one: "F[B-]1(F)n2c(c3cccc4cccc2c43)=Nc2sc3ccccc3[n+]21"
0.87

Quick one: "CC(C)[Si](C#Cc1c2cc3ccccc3cc2c(C#C[Si](C(C)C)(C(C)C)C(C)C)c2nc3c(nc12)C1c2ccccc2C3c2ccccc21)(C(C)C)C(C)C"
0.54

Quick one: "CC1=CC(C)=[N+]2C1=Cc1c3ccccc3c(C#Cc3cccs3)n1[B-]2(F)F"
0.69

Quick one: "c1ccc2nc3cccc(-c4ccc(-n5c6ccccc6c6ccccc65)cc4)c3cc2c1"
0.0319

Quick one: "CCOC(=O)c1cc(C)n2nc(-c3ccccc3)ccc12"
0.434

Quick one: "Cc1cccc(C)c1Nc1ccc(/C=C/c2ccccc2)cc1"
0.11

Quick one: "CC1=C(C(C)(C)C)C(C)=[N+]2C1=C(C)c1c(C)c(C(C)(C)C)c(C)n1[B-]2(F)F"
0.43

Quick one: "COC(=O)c1c(C(=O)OC)c2ccc(-c3ccccc3)nn2c1C"
0.685

Quick one: "CCNc1ccc2c(C(F)(F)F)cc(=O)oc2c1"
0.76

Quick one: "c1ccc(-c2c3c(c(-c4ccccc4)c4cc5ccccc5cc24)Cc2c(c(-c4ccccc4)c4cc5ccccc5cc4c2-c2ccccc2)C3)cc1"
0.28

Quick one: "CCCCCCCCCCCn1cccc1C1=[N+]2C(=Cc3c(C)cc(C)n3[B-]2(F)F)c2ccccc21"
0.99

Quick one: "CC1(C)CCc2c(c3ccccc3c3nc4c5c(c6ccccc6c4nc23)OC(C)(C)CC5)O1"
0.31

Quick one: "CC(C)[Si](C#Cc1ccc(C#C[Si](C(C)C)(C(C)C)C(C)C)c2nc3c(ccc4ccccc43)nc12)(C(C)C)C(C)C"
0.05

Quick one: "c1ccc(N2c3ccc4ccccc4c3-c3c4ccccc4nc[n+]3[B-]2(c2ccccc2)c2ccccc2)cc1"
0.06

Quick one: "CN(C)c1ccc(/C=C/C=C2\CC/C(=C\c3ccc(N(C)C)cc3)C2=O)cc1"
0.007

Quick one: "C(=C\c1ccc2ccccc2c1)/c1ccc(N(c2ccccc2)c2ccccc2)cc1"
0.61

Quick one: "O=C1C(=c2c(=O)c3c4ccccc4cc4cc5ccccc5c2c43)C(=O)c2ccccc21"
0.292

Quick one: "CN(C)c1ccc(/C=C/c2ccccc2)cc1"
0.03

Quick one: "CCCSC1=[N+]2C(=C(c3ccccc3)c3ccc(SCCC)n3[B-]2(F)F)C=C1"
0.34

Quick one: COC(=O)C(Cc1ccc2oc(-c3ccc(N(C)C)cc3)nc2c1)NC(=O)OC(C)(C)C (stereo not given)
0.93

Where do the numbers come from? From the Deep4Chem optical property database.
